Biological target: T1, human high-affinity IL-2 receptor complex, IL-2 CD25/CD122/CD132 (α/β/γ), on cells (human, UniProt P01589 22-272; P14784 27-551; P31785 23-369)
T1 sequence (looked up) 1: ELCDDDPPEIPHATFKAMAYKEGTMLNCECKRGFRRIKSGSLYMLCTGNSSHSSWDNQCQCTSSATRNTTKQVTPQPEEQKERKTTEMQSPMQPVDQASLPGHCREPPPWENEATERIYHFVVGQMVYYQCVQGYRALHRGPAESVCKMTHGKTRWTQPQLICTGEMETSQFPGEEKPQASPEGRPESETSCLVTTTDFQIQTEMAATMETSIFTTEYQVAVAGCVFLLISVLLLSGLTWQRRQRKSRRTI
T1 sequence (looked up) 2: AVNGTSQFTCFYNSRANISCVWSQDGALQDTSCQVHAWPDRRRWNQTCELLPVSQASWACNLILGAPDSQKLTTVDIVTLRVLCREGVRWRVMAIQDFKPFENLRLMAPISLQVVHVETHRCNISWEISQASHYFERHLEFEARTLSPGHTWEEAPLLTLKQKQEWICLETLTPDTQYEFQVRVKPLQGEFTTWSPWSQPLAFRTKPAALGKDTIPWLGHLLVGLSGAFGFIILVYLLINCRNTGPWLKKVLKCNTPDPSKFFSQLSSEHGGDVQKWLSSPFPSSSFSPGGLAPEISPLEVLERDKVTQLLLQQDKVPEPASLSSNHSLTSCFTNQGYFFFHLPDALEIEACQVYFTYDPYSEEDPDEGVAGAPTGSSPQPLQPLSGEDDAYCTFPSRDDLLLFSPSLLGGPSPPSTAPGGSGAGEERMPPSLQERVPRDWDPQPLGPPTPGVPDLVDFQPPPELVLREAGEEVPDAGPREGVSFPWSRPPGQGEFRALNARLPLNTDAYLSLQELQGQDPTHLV
T1 sequence (looked up) 3: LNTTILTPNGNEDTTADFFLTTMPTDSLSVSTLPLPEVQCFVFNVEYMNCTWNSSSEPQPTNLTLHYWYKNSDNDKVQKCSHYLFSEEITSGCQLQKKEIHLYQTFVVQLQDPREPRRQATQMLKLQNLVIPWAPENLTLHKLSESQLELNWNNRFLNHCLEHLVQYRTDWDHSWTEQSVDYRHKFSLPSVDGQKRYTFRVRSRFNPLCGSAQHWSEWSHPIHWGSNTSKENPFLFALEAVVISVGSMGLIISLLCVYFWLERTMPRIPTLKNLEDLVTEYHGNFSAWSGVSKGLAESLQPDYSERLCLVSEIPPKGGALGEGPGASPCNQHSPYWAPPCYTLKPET
Assay: cell-based or functional assay
quantity-measured: EC50 (read off the curve), pSTAT5 MFI in Treg cells of hPBMC

// solved cases for EC50 (read off the curve), pSTAT5 MFI in Treg cells of hPBMC follow
>  <binder>
Fc-IL2-R38N:L40T-K43N:Y45T (Fc fusion) GGGGSGGGGSAPTSSSTKKTQLQLEHLLLDLQMILNGINNYKNPKLTNMTTFNFTMPKKATELKHLQCLEEELKPLEEVLNLAQSKNFHLRPRDLISNINVIVLELKGSETTFMCEYADETATIVEFLNRWITFCQSIISTLT

>  <obs-value>
~20 nM

$$$$
>  <binder>
Fc-IL2-R38N:L40T-E62N:K64T (Fc fusion) GGGGSGGGGSAPTSSSTKKTQLQLEHLLLDLQMILNGINNYKNPKLTNMTTFKFYMPKKATELKHLQCLEENLTPLEEVLNLAQSKNFHLRPRDLISNINVIVLELKGSETTFMCEYADETATIVEFLNRWITFCQSIISTLT

>  <obs-value>
~20 nM

$$$$

Okay, here is my list. What is EC50 (read off the curve), pSTAT5 MFI in Treg cells of hPBMC for each of these?
1. Fc-IL2-R38N:L40T-L72N:Q74T (Fc fusion) GGGGSGGGGSAPTSSSTKKTQLQLEHLLLDLQMILNGINNYKNPKLTNMTTFKFYMPKKATELKHLQCLEEELKPLEEVLNNATSKNFHLRPRDLISNINVIVLELKGSETTFMCEYADETATIVEFLNRWITFCQSIISTLT
2. Fc-IL2v (Fc fusion) GGGGSGGGGSAPASSSTKKTQLQLEHLLLDLQMILNGINNYKNPKLTRMLTAKFAMPKKATELKHLQCLEEELKPLEEVLNGAQSKNFHLRPRDLISNINVIVLELKGSETTFMCEYADETATIVEFLNRWITFAQSIISTLT

~20 nM
~8 nM
